Listing of entries alongside the reported phenotypically active.
# Tested on: HepG2-CANX-COX4
# Method summary: phenotypically active (imaging signature differs from DMSO and reproducible) at any of 0.3-9 uM (binary (1 = active, 0 = inactive)); higher = active
# Experimental context: treatment time: 24 h
Where a name gives a salt, the structure may show the parent alone.
# output: bare number, no unit

Solved cases below.
>  <Molecule>
CCOC(=O)N1CCC(=C2c3ccc(Cl)cc3CCc3cccnc32)CC1

>  <phenotypically active>
1

$$$$
>  <Molecule>
Cc1cc(C)cc(C(=O)NOCCCCCC(=O)NO)c1

>  <phenotypically active>
1

$$$$
>  <Molecule>
CC(C)(N)c1cc(C(=O)N[C@@H]2CCc3ccc(OC4=C5CCC(=O)N=C5NC=C4)cc3C2)cc(C(F)(F)F)c1 [ML 786 dihydrochloride]

>  <phenotypically active>
1

$$$$
>  <Molecule>
COc1c(O[C@@H]2O[C@H](CO)[C@@H](O)[C@H](O)[C@H]2O)cc2c(c1OC)-c1ccc(SC)c(=O)cc1[C@@H](NC(C)=O)CC2 [Thiocolchicoside]

>  <phenotypically active>
0

$$$$
>  <Molecule>
O=S(=O)(c1cccc2cnccc12)N1CCNCC1

>  <phenotypically active>
1

$$$$

Query: Determine its reported phenotypically active: COc1ccc2c(c1OC)C(=O)O[C@@H]2[C@H]1c2c(cc3c(c2OC)OCO3)CCN1C [Noscapine hydrochloride]
Response: 0

Query: Determine its reported phenotypically active: Cc1cc(C(C)(C)C)c(O)c(C)c1CC1=NCCN1
Response: 0

Query: Determine its reported phenotypically active: O=C1CCc2cc(OCCCCc3nnnn3C3CCCCC3)ccc2N1
Response: 0

Query: Determine its reported phenotypically active: CNC(=O)COC(=O)N1CCC(CCc2ccc(Cl)cc2)CC1
Response: 0

Query: Determine its reported phenotypically active: CO[C@@]12[C@H](COC(N)=O)C3=C(C(=O)C(C)=C(N)C3=O)N1C[C@@H]1N[C@@H]12
Response: 0

Query: Determine its reported phenotypically active: Fc1ccc(Cl)cc1-c1nc(Nc2ccncc2)c2nccnc2n1
Response: 0
